Test system: RARg homodimer (NR concentration 270 nM)
Experiment: PBM binding z-score (relative to random genomic background probes); higher = stronger binding; sequences stand for … in GC…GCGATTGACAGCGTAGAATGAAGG
Observable: PBM binding z-score
Number, no unit, nothing else.

Guide cases for PBM binding z-score, answers given:
1) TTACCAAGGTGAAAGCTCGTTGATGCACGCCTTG | 0.28
2) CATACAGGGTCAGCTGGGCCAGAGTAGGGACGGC | 4.97
3) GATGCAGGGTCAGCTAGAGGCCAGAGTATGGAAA | 5.08

Find PBM binding z-score (RARg homodimer (NR concentration 270 nM)) for the entry "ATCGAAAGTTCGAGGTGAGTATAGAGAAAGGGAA" 2.19

Find PBM binding z-score (RARg homodimer (NR concentration 270 nM)) for the entry "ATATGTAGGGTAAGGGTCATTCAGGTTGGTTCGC" 3.27

Find PBM binding z-score (RARg homodimer (NR concentration 270 nM)) for the entry "CGAACTAGGTCATCCAGGACAGTGATTACATTGA" 5.13

Find PBM binding z-score (RARg homodimer (NR concentration 270 nM)) for the entry "TCATATAGGTAAAAGGTAAAAGTCGGTGTGGTAA" 0.169

Find PBM binding z-score (RARg homodimer (NR concentration 270 nM)) for the entry "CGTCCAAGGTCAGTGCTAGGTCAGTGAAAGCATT" 6.07

Find PBM binding z-score (RARg homodimer (NR concentration 270 nM)) for the entry "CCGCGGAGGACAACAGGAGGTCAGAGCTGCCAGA" 3.65
